Examples of compounds with documented TGI follow.
# Test system: ACHN renal
# Measurement Notes: NCI tumour cell line growth inhibition, 48 h
Readout: TGI

- COc1cc(C2CC(C)(O)Oc3cc4c(cc32)OCO4)cc(OC)c1OC (stereo not given): > 100 µM
- C=C(C)CCOC(c1ccccc1)(c1ccccc1)c1ccccc1: > 100 µM
- NS(=O)(=O)c1nnc(NC(=O)Nc2ccc(Cl)c(Cl)c2)s1: > 100 µM
- CCC(=O)NCC1CCCN2CCCCC12 (stereo not given): > 100 µM
- CCc1c(OC(C)=O)c2c(NC3OCC(OC(C)=O)C(OC(C)=O)C3OC(C)=O)nc(SC)nc2oc1=O (stereo not given): > 100 µM
- O=C(N/N=C/c1ccc(Cl)cc1)c1c(Cl)c(Cl)c(Cl)c(Cl)c1-c1nc2ccccc2[nH]1: > 100 µM
- Cc1cc(I)cc(CN(CCCN(C)C)C(C)C)c1O: 31.6 µM
- N#C/C(=C1/Sc2c(nc[nH]c2=O)N1c1ccccc1)c1nc2ccccc2[nH]1: > 100 µM
- C=CC1(CC/C(=C\[N+](=O)[O-])c2ccc(OC)c(OC)c2)OCC(C)(C)CO1: 37.9 µM
- CCC(=O)NC(Nc1cc(C)on1)(C(F)(F)F)C(F)(F)F: > 100 µM

###

# System: MDA-MB-231 breast
# Measurement Notes: NCI tumour cell line growth inhibition, 48 h
Readout: TGI

- O=C1c2cc3c(cc2-c2c1c1ccc(F)cc1c(=O)n2C[C@H](O)[C@@H](O)[C@H](O)CO)OCO3: 0.984 µM
- CCOC(=S)SCC(=O)O: > 100 µM
- Nc1ccc(C2=NNC(=O)Cc3cc4c(cc32)OCCO4)cc1Cl: > 50 µM
- C/C(=C\CBr)CCC(Br)C(C)(C)Br (stereo unspecified): > 100 µM
- CCCCCC1=CC(=O)C1(Cl)Cl: 31 µM
- Nc1nc(-c2ccccc2)nc2oc(-c3cccs3)nc12: > 100 µM
- Cc1ccccc1OC(C)C(=O)NN1C(=O)CSC1c1ccccc1 (stereo unspecified): > 100 µM
- Oc1[nH]c2ccccc2c1N=Nc1nc(-c2ccc(Br)cc2)cs1: 62.5 µM
- CC1CN(C)c2ccccc2N=C1NN (stereo unspecified): > 100 µM
- CC(C)[C@@H]1C=C2CC[C@H]3[C@](C)(CN)CCC[C@]3(C)[C@H]2CC1: 5.47 µM
- COc1ccc(C2[C@@H](c3ccccc3)C(=O)N2c2cc(OC)c(OC)c(OC)c2)cc1F (stereo partly specified): > 100 µM

###

Examples of compounds with documented TGI follow.
# System: LOX IMVI melanoma
# Measurement Notes: NCI tumour cell line growth inhibition, 48 h
Readout: TGI

* Cc1nnc(NC(=O)c2nc(S(=O)(=O)Cc3ccc(F)cc3)ncc2Cl)s1 | 2.96 µM
* Cc1ccc(-c2csc(=Nc3ccccc3)n2NC(=O)c2ccncc2)cc1 | > 100 µM
* Cc1ccc(Oc2ccc(C)cc2N)cc1 | > 100 µM
* NS(=O)(=O)c1nnc(NC(=O)Nc2ccc(Cl)c(Cl)c2)s1 | 36.4 µM
* Cc1csc(-c2nnc(Nc3ccc(Oc4ncccc4-c4ccnc(N)n4)cc3)c3ccccc23)c1 | > 100 µM
* CC(=O)O/N=C(/C)c1ccccc1O | > 100 µM
* CCCCCC[C@@H]1CCC2C(CO)[C@@H](O)CC[C@@H]2C1 (stereo not given in full) | 34.6 µM
* CCOC(=O)Nc1sc2c(c1C#N)CCCC2 | > 100 µM
* COc1cc(C2CC(C)(O)Oc3cc4c(cc32)OCO4)cc(OC)c1OC (stereo not given) | > 100 µM
* Cc1cc(I)cc(CN(CCCN(C)C)C(C)C)c1O | 28.6 µM
* COc1ccc(-c2[nH]c3c4c(nc5c(c24)C(=O)CC(C)(C)C5)CC(C)(C)C3)cc1 | > 100 µM
* CC(C)c1cc2c(cc1S(=O)(=O)O)[C@@]1(C)CCC[C@@](C)(C(=O)O)C1CC2 (stereo not given in full) | > 100 µM
* C(=C(c1ccc(OC2CCCCO2)cc1)c1ccc(OC2CCCCO2)cc1)c1ccccc1 (stereo not given) | 1.14 µM
* CC1=C2C(=C[C@@](C)(CO)[C@@H]2O)C(=O)[C@](C)(O)C12CC2 | 0.0376 µM
* CC(=O)Nn1c(=S)[nH]c2ccccc21 | > 100 µM

###

# Test system: SK-MEL-5 melanoma
# Measurement Notes: NCI tumour cell line growth inhibition, 48 h
Examples of compounds with documented TGI follow.
Readout: TGI (µM)

* CCCCCC1=CC(=O)C1(Cl)Cl | 24
* CC1(C(=O)O)CCC2(C)CCC3(C)C(=CC(=O)C4C5(C)CCC(O)C(C)(C)C5CCC43C)C2C1 (stereo not given) | 54.3
* N#Cc1c[nH]n2c(N=Nc3ccc(Cl)cc3)c(O)nc12 | 43.7
* Cc1ccc(-c2csc(=Nc3ccccc3)n2NC(=O)c2ccncc2)cc1 | 34.8
* CN(C)c1cc(NN=C(c2ccc(O)cc2)c2ccc(O)cc2)c([N+](=O)[O-])cc1[N+](=O)[O-] | 14.4

###

# Test system: MCF7 breast
# Measurement Notes: NCI tumour cell line growth inhibition, 48 h
Readout: TGI

• O=[N+]([O-])c1ccc(Cl)cc1N/N=C/c1ccnc2ccccc12 = > 100 µM
• CCOP(=O)(OCC)C(F)(F)c1ccc(CC(NC(=O)OC(C)(C)C)C(=O)O)cc1 (stereo not given) = > 10 µM
• O=c1[nH]c(=S)[nH]c2c1C(c1ccc([N+](=O)[O-])cc1)c1c([nH]c(=S)[nH]c1=O)O2 = > 100 µM
• O=C(C1OC1c1ccc(Br)cc1O)C12CC3CC(CC(C3)C1)C2 (stereo not given) = > 100 µM
• Oc1ccc2c(c1)c1c(n2CCN2CCOCC2)-c2ccccc2CC1 = > 100 µM
• N=c1nnc2ccc(Cl)cc2n1O = > 100 µM
• COP(=O)(OC)C1=c2c(C)noc2=C2C=COC2C1=O (stereo not given) = > 100 µM
• CCC(=O)NCC1CCCN2CCCCC12 (stereo not given) = > 100 µM
• COc1ccc2cc1Oc1ccc(cc1)C[C@H]1c3cc(c(OC)cc3CCN1C)Oc1c(O)c(OC)cc3c1[C@H](C2)N(C)CC3 = 51.5 µM
• COc1ccc(CN2C(=O)/C(=C\c3cc(OC)c(OC)c(OC)c3)c3ccccc32)cc1 = 15.9 µM

###

Examples of molecules with documented TGI follow.
# Tested on: HCC-2998 colon
# Measurement Notes: NCI tumour cell line growth inhibition, 48 h
Readout: TGI

* N[C@@H]1CCCC[C@@H]1N.O=P([O-])([O-])CN(CCN(CP(=O)([O-])[O-])CP(=O)([O-])[O-])CP(=O)([O-])[O-].[Pt+2] | > 25 µM
* COc1cc(-c2ccc3cc(OC)c(OC)c(OC)c3c2)cc(OC)c1OC | > 100 µM
* COc1ccc(C)cc1-c1cc(Sc2ccccc2)c(-c2cc(C)ccc2OC)o1 | > 31.6 µM
* O=C1C=C[C@@H](COC2OC(CO)C(O)C(O)C2O)O1 (some centres not stated) | > 100 µM
* CCCCN(CCCC)C(=O)C(=O)C(C(=O)c1ccc(OC)cc1)c1ccc(OC)cc1 (configuration not stated) | > 100 µM
* CC1(C(=O)O)CCC2(C)CCC3(C)C(=CC(=O)C4C5(C)CCC(O)C(C)(C)C5CCC43C)C2C1 (configuration not stated) | 87.3 µM
* O=C1c2cc3c(cc2-c2c1c1ccc(F)cc1c(=O)n2C[C@H](O)[C@@H](O)[C@H](O)CO)OCO3 | 0.38 µM
* Nc1cc(NN=C(c2ccc(O)cc2)c2ccc(O)cc2)c([N+](=O)[O-])cc1[N+](=O)[O-] | 3.51 µM
* Nn1c(Nc2ccc(S(=O)(=O)Nc3ncccn3)cc2)nnc(/C=C/c2c(O)ccc3ccccc23)c1=O | 57.7 µM
* Cc1ccc(Oc2ccc(C)cc2N)cc1 | > 100 µM
* CCCCCCCCCCn1cc[n+](C)c1 | 11.2 µM
* O=C(N/N=C/c1ccc(Cl)cc1)c1c(Cl)c(Cl)c(Cl)c(Cl)c1-c1nc2ccccc2[nH]1 | > 100 µM
* Cc1ccccc1OC(C)C(=O)NN1C(=O)CSC1c1ccccc1 (configuration not stated) | > 100 µM
* COc1ccc2nc(NC(=O)CSc3nnc4n3S(=O)(=O)c3ccccc3N4c3ccccc3)sc2c1 | > 100 µM
* O=C(Cc1ccc(O)c(O)c1)NCc1c[nH]c2ccccc12 | > 100 µM
* Cc1cc(C)nc(NS(=O)(=O)c2ccc(NC(=O)c3ccc4nc5ccccc5c(Nc5ccc(S(N)(=O)=O)cc5)c4c3)cc2)n1 | > 100 µM
* Oc1ccc(Cc2cc(Cc3ccc(O)cc3)cc(Cc3ccc(O)cc3)c2)cc1 | > 50 µM
* Cc1ccc(/C=C/C(=O)CCN(C)C)cc1 | 32.1 µM
* Cc1nnc(NC(=O)c2nc(S(=O)(=O)Cc3ccc(F)cc3)ncc2Cl)s1 | 29.4 µM
* CC(=O)c1c2c(c3ccccc3c1O)O[C@@H]1OCC[C@H]21 | > 100 µM
* Cc1cc(-c2nc3ccc(F)cc3s2)ccc1NC(=O)[C@H](C)N | 4.5 µM
* COc1ccc(/C=c2\sc3n(c2=O)CCN=3)cc1 | > 100 µM
* COc1ccc(CCN=C2NC(=O)/C(=C/c3ccc4ncccc4c3)S2)cc1 | > 25 µM
* CCN(Cc1ccc(F)cc1)c1cc(Cl)c(CO)c(Cl)c1 | 28.1 µM
* CCN(C(=O)N1CCN(c2cc3c(cc2F)c(=O)c(C(=O)O)cn3C2CC2)CC1)c1nc(-c2ccc(Cl)cc2)cs1 | > 28.6 µM
* COc1cc(S(=O)(=O)Nc2nc(-c3ccc(N4C(=O)C(CC(=O)O)SC4c4cccs4)cc3)cs2)ccc1Cl (configuration not stated) | > 100 µM
* COc1ccc2[nH]cc(/C=C(/C)c3ccncc3)c2c1 | 95.3 µM

Sourced from PubChem BioAssay (NCI)
